target: JH2 domain of human Tyk2 (Homo sapiens (Human), UniProt P29597); test: JH2 Biochemical Assay (TR-FRET probe displacement); type: binding; settings: JH2 domain of human Tyk2, TR-FRET probe displacement
Sequence (P29597 575-876): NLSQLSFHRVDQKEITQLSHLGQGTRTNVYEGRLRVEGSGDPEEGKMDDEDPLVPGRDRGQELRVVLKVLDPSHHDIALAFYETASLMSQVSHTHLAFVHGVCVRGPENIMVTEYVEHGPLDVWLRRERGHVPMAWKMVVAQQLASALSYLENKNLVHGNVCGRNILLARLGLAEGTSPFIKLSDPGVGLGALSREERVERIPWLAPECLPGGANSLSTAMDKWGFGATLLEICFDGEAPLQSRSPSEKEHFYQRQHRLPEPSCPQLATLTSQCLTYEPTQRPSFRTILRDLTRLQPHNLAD
measured_property: IC50

| compound | study_target | IC50 |
| --- | --- | --- |
| CC(=O)Nc1cc(Nc2cc(C)nc(C(C)(F)F)n2)c(-c2cc3n(n2)CCOC3)cn1 | JH2 domain of human Tyk2 (Homo sapiens (Human), UniProt P29597) | ≤ 0.01 µM |
| CCn1cc(COc2cnc(NC(C)=O)cc2Nc2cc(C)nc(C(C)(F)F)n2)cn1 | JH2 domain of human Tyk2 (Homo sapiens (Human), UniProt P29597) | ≤ 0.01 µM |
| COc1cnc(NC(C)=O)cc1Nc1cc(-c2cnn(CCN3CCOCC3)c2)nc(C(C)(F)F)n1 | JH2 domain of human Tyk2 (Homo sapiens (Human), UniProt P29597) | ≤ 0.01 µM |
| CC(=O)Nc1cc(Nc2cc(C)nc(C(C)(F)F)n2)c(OCc2cc(C)on2)cn1 | JH2 domain of human Tyk2 (Homo sapiens (Human), UniProt P29597) | ≤ 0.01 µM |
| CC(=O)Nc1cc(Nc2cc(C)nc(C(C)(F)F)n2)c(OCc2cnoc2)cn1 | JH2 domain of human Tyk2 (Homo sapiens (Human), UniProt P29597) | ≤ 0.01 µM |

Kindly review the next compound as well.
Prompt: # get_value(readout='IC50', item= CC(=O)Nc1cc(Nc2cc(C)nc(C(C)(F)F)n2)c(-n2cc(C#N)cn2)cn1 )
Response: ≤ 0.01 µM

* * *

Measured pIC50, listed per entry.
target: Tyk2 (Homo sapiens (Human), UniProt P29597); test: pSTAT4 Cell Assay (MSD, NK92 cells); assay type: cell-based; conditions: MSD
Sequence (P29597 whole entry, the tested form may be a part): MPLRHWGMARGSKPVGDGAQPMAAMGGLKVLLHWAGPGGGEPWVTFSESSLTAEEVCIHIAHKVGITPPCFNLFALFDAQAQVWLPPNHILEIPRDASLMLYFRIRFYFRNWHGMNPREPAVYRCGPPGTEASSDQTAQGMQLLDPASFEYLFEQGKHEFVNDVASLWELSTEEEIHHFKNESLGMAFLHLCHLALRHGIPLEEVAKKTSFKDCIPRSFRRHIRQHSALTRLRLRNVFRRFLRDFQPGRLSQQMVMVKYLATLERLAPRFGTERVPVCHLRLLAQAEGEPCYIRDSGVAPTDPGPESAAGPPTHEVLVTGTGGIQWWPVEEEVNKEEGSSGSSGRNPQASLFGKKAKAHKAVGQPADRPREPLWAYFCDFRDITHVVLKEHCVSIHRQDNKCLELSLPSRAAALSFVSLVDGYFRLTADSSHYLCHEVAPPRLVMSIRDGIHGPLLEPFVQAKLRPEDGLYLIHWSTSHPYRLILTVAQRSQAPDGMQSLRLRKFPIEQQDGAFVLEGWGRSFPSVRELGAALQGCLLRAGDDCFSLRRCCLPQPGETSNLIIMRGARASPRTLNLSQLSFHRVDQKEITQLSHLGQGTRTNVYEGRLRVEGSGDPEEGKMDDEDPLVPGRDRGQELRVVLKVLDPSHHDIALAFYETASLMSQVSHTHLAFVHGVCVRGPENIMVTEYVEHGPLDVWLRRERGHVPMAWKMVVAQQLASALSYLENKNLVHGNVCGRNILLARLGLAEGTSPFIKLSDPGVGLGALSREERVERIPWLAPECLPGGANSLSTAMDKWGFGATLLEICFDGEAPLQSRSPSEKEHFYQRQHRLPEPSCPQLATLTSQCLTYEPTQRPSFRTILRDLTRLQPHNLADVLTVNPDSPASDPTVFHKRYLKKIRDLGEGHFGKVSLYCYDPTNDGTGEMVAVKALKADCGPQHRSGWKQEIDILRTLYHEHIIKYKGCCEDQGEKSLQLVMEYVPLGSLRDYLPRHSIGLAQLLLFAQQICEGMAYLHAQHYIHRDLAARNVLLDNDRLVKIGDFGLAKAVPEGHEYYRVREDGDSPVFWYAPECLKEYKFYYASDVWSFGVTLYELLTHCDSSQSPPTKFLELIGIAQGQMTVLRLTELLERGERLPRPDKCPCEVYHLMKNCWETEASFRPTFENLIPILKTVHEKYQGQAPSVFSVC
pIC50: −log10 of the molar value.

Prompt: pIC50 of CCn1cc(COc2cnc(NC(C)=O)cc2Nc2cc(C)nc(C(C)(F)F)n2)cn1 on Tyk2 (Homo sapiens (Human), UniProt P29597)?
Response: 7.00 to 8.00

* * *

Recorded IC50 by entry
Target: Tyk2 (Homo sapiens (Human))
Assay: pSTAT4 Cell Assay (MSD, NK92 cells)
Assay type: cell-based
Description: The inhibitory potency of compounds of the disclosure against the Tyk2 kinase activity on STAT4 was evaluated using an MSD-platform plate-based assay format. NK92 cells natively expressing STAT4 and Tyk2 were serum-starved to reduce background phosphorylation levels, then cells were treated compounds for 1 hr with a 10-point four-fold dilution series starting at 10 μM. Cells were then stimulated with 30 ng/mL IL2 for 15 minutes. […]

| compound_structure | IC50 |
| --- | --- |
| CCc1cc(Nc2cc(NC(C)=O)ncc2-c2ccc(F)c(CN3C[C@H]4C[C@@H]3CO4)n2)nc(C(C)(F)F)n1 | ≤ 10 nM |
| CC(=O)Nc1cc(Nc2cc(C)nc(C(C)(C)F)n2)c(-c2ccncn2)cn1 | ≤ 10 nM |
| COCCOc1ccnc(-c2cnc(NC(C)=O)cc2Nc2cc(C)nc(C(C)(F)F)n2)n1 | ≥ 1000 nM |

Turning now to a further record.
Prompt: IC50 lookup needed for CCc1cc(Nc2cc(NC(C)=O)ncc2-c2ccc(F)c(CN3C[C@@H]4C[C@H]3CO4)n2)nc(C(C)(F)F)n1 , thanks.
Response: ≤ 10 nM

* * *

Here the recorded IC50 is given for each entry.
biological target: UniProtKB P29597; test: pSTAT4 Cell Assay (MSD, NK92 cells); format: cell-based; conditions: MSD
Where a name gives a salt, the structure may show the parent alone.

Please review the entries below; each comes with its answer.
| compound | endpoint_result |
| --- | --- |
| COCCOc1cnc(NC(C)=O)cc1Nc1cccc(C(C)(F)F)n1 | ≤ 10 nM |
| CC(=O)Nc1cc(Nc2cc(C)nc(C(C)(F)F)n2)c(OCc2cnccn2)cn1 | 10 to 100 nM |
| CC(=O)Nc1cc(Nc2cc(C)nc(C(C)(F)F)n2)c(OCc2nnc(C)s2)cn1 | 10 to 100 nM |

// next item, IC50 requested
Prompt: Report IC50 for CC(=O)Nc1cc(Nc2ccnc(C(C)(F)F)n2)c(-c2ccc3c(n2)OCC(C)(C)O3)cn1 [Example 144, trifluoroacetate] please.
Response: ≤ 10 nM

* * *

Each entry below lists one item and its recorded pIC50 value.
target: Tyk2 (Homo sapiens (Human), UniProt P29597); test: pSTAT4 Cell Assay (MSD, NK92 cells); format: cell-based; conditions: MSD
pIC50: −log10 of the molar value.

See these solved cases before continuing.
| compound_structure | pIC50 |
| --- | --- |
| COc1cnc(NC(C)=O)cc1Nc1cc(-c2cc(C#N)c3nc(C)cn3c2)nc(C(C)(F)F)n1 | 6.00 to 7.00 |
| CC(=O)Nc1cc(Nc2cc(C)nc(C(C)(F)F)n2)c(OCC23COCC(C2)C3)cn1 | 7.00 to 8.00 |
| CC(=O)Nc1cc(Nc2cc(C)nc(C(C)(F)F)n2)c(OCc2scnc2C)cn1 | 6.00 to 7.00 |

Prompt: Identify the measured pIC50 of CCOc1cnc(NC(C)=O)cc1Nc1cc(-c2cnn(C)c2)nc(C(C)(F)F)n1 for Tyk2 (Homo sapiens (Human), UniProt P29597).
Response: 7.00 to 8.00

* * *

target: JH2 domain of human Tyk2 (Homo sapiens (Human), UniProt P29597); assay: JH2 Biochemical Assay (TR-FRET probe displacement); assay type: binding; settings: TR-FRET probe displacement, JH2 domain of human Tyk2
pIC50: −log10 of the molar value.
measured_property: pIC50

| molecule | study_target | pIC50 |
| --- | --- | --- |
| COCCOc1cnc(NC(C)=O)cc1Nc1cncc(C(C)(F)F)n1 [Example 67] | JH2 domain of human Tyk2 (Homo sapiens (Human), UniProt P29597) | ≥ 8.00 |
| CC(=O)Nc1cc(Nc2cc(C)nc(C(C)(F)F)n2)c(OCC23COCC(C2)C3)cn1 [Example 324] | JH2 domain of human Tyk2 (Homo sapiens (Human), UniProt P29597) | ≥ 8.00 |
| CC(=O)Nc1cc(Nc2cc(C)nc(C(C)(F)F)n2)c(-c2ccncn2)cn1 [Example 270] | JH2 domain of human Tyk2 (Homo sapiens (Human), UniProt P29597) | ≥ 8.00 |
| CC(=O)Nc1cc(Nc2cccc(C(C)(F)F)n2)c(-c2cn(C)c(=O)cn2)cn1 [Example 159] | JH2 domain of human Tyk2 (Homo sapiens (Human), UniProt P29597) | ≥ 8.00 |

Prompt: May I ask what pIC50 has been recorded for COCCn1nccc1-c1cnc(NC(C)=O)cc1Nc1cc(C)nc(C(C)(F)F)n1 [Example 258] ?
Response: 6.00 to 7.00

Prompt: What does the record list as pIC50 for COCc1cnc(NC(C)=O)cc1Nc1ccc(-c2ccn(C)n2)c(OC)n1 [Example 48] ?
Response: 6.00 to 7.00

Prompt: # lookup: pIC50 of COc1cc(-c2cnc(NC(C)=O)cc2Nc2cccc(C(C)(F)F)n2)ncn1 [Example 162]
Response: ≥ 8.00

Prompt: Can you look up the measured pIC50 of COCCOc1cnc(NC(C)=O)cc1Nc1cc(OC)nc(C(C)(F)F)n1 [Example 21] for me?
Response: ≥ 8.00

* * *

target: JH2 domain of human Tyk2 (Homo sapiens (Human)); experiment: JH2 Biochemical Assay (TR-FRET probe displacement); assay type: binding; details: TR-FRET probe displacement, JH2 domain of human Tyk2
pIC50: −log10 of the molar value.
Collected pIC50 values appear next to each entry.

Prompt: Given the compound CCc1cc(Nc2cc(NC(=O)OC)ncc2OCCOC)nc(C(C)(F)F)n1 , what is its reported pIC50?
Response: ≥ 8.00

Prompt: So what does the record say about pIC50 for CC(=O)Nc1cc(Nc2cccc(C(C)(F)F)n2)c(-c2ccnc(C)n2)cn1 ?
Response: ≥ 8.00

Prompt: Form field: reported pIC50 of CC(=O)Nc1cc(Nc2cccc(C3CCOC3)n2)c(-c2ccn(C)n2)cn1 (centres unmarked)
Response: ≥ 8.00

Prompt: Look at this compound and give its reported pIC50. CC(=O)Nc1cc(Nc2cc(C)nc(C(C)(F)F)n2)c(OCc2nc(C)c(C)o2)cn1
Response: ≥ 8.00

* * *

target: Tyk2 (Homo sapiens (Human)); assay: pSTAT4 Cell Assay (MSD, NK92 cells); type: cell-based; conditions: MSD
Entries and their IC50

Use the examples below as a reference point.
| compound | IC50 |
| --- | --- |
| CC(=O)Nc1cc(Nc2cc(C)nc(C(C)(C)F)n2)c(-c2cc3n(n2)CCOC3)cn1 | ≤ 10 nM |
| CC(=O)Nc1cc(Nc2cc(C)nc(C(C)(F)F)n2)c(-c2cc(C#N)cnn2)cn1 | 100 to 1000 nM |
| CC(=O)Nc1cc(Nc2cc(C)nc(C(C)(F)F)n2)c(C)cn1 | 100 to 1000 nM |
| CC(=O)Nc1cc(Nc2ccnc(C(C)(F)F)n2)c(-c2ccc(COC(F)F)cn2)cn1 | ≤ 10 nM |
| CC(=O)Nc1cc(Nc2cc(C)nc(C(C)(F)F)n2)c(C2CC2)cn1 | 100 to 1000 nM |

Prompt: Report IC50 for COc1ccc(Oc2cnc(NC(C)=O)cc2Nc2cc(C)nc(C(C)(F)F)n2)nn1 tested on Tyk2 (Homo sapiens (Human)).
Response: ≥ 1000 nM

Prompt: Param readout = IC50; param system = Tyk2 (Homo sapiens (Human)); param query = COc1cc(Nc2cc(NC(C)=O)ncc2OC)nc(C(C)(F)F)n1 ; response: value
Response: 10 to 100 nM

FYI, the data here is from patent US20260028365A1.
